Below is a list of entries, each paired with its recorded inhibition of SARS-CoV-2 cytopathic effect value.
test system: Vero E6 infected with SARS-CoV-2; experiment: inhibition of SARS-CoV-2 cytopathic effect; higher = more antiviral protection, active = above 15; details: 833.33 nM; 48 h
metric name: inhibition of SARS-CoV-2 cytopathic effect (%)

chemical structure: CCCN(CCc1cccs1)[C@H]1CCc2c(O)cccc2C1
u: %
value: -1.26

chemical structure: CC(C)CNc1nc(-c2cccc3ncccc23)cn2c(-c3ccc(C(=O)NC4CC4)cc3)cnc12
u: %
value: -6.07

chemical structure: O=C(c1cccc(Cl)c1F)N1CCN(Cc2cccc(Nc3nccs3)n2)CC1
u: %
value: -4.51

chemical structure: CC1(C)Oc2ccc(C#N)cc2[C@H](N(Cc2ncc[nH]2)c2ccc(Cl)cc2)[C@H]1O
u: %
value: 2.7

chemical structure: CN1CCC(=C2c3ccccc3CCn3c(C=O)cnc32)CC1
u: %
value: 0.36

chemical structure: Cn1cc(-c2ccc(F)c(C(F)(F)F)c2)nc1C1CCN(c2ncnc3[nH]ncc23)CC1
u: %
value: -2.86

chemical structure: CCN(CC)CCOC(=O)c1ccc(N)cc1
u: %
value: -1.72

----------
Here the recorded inhibition of SARS-CoV-2 cytopathic effect is given for each entry.
system: Vero E6 infected with SARS-CoV-2; assay: inhibition of SARS-CoV-2 cytopathic effect; higher = more antiviral protection, active = above 15; settings: 8.33 nM; 48 h
metric name: inhibition of SARS-CoV-2 cytopathic effect (%)

compound: CCn1c(-c2nonc2N)nc2cnc(Oc3cccc(NC(=O)c4ccc(OCCN5CCOCC5)cc4)c3)cc21
measured target: Vero E6 infected with SARS-CoV-2
u: %
value: 0.11
//
compound: OCCNCCCOc1cccc(Cl)c1Cl
measured target: Vero E6 infected with SARS-CoV-2
u: %
value: 0.45
//
compound: CN1C(C(=O)Nc2ccccn2)=C(O)c2sc(Cl)cc2S1(=O)=O
measured target: Vero E6 infected with SARS-CoV-2
u: %
value: -0.66
//
compound: CCn1c(=O)[nH]c2ccccc21
measured target: Vero E6 infected with SARS-CoV-2
u: %
value: -3.46
//
compound: Clc1ccc(C(OCCN2CCCCC2)c2ccccc2)cc1 (stereo not given)
measured target: Vero E6 infected with SARS-CoV-2
u: %
value: -0.73

----------
tested on: Vero E6 infected with SARS-CoV-2; test: morphology score (similarity to uninfected cells); higher = more like uninfected cells; conditions: 24 h
morphology score below 0.08 gives False; morphology score at or above it gives True.

compound: C[n+]1c2cc(N)ccc2cc2ccc(N)cc21.Nc1ccc2cc3ccc(N)cc3nc2c1 [acriflavine] (0.833333 µM)
assigned category: True
//
compound: Oc1ccc2c3c1O[C@H]1c4[nH]c5ccccc5c4C[C@@]4(O)[C@@H](C2)N(CC2CC2)CC[C@]314 [naltrindole] (10 µM)
assigned category: False
//
compound: O=S(=O)(O)c1cc(I)c(O)c2ncccc12 [chiniofon] (10 µM)
assigned category: False
//
compound: CCNC(=O)[C@@H]1CCCN1C(=O)[C@H](CCCNC(=N)N)NC(=O)[C@H](CC(C)C)NC(=O)[C@@H](C)NC(=O)[C@H](Cc1ccc(O)cc1)NC(=O)[C@H](CO)NC(=O)[C@H](Cc1c[nH]c2ccccc12)NC(=O)[C@H](Cc1cnc[nH]1)NC(=O)[C@@H]1CCC(=O)N1 [alarelin] (10 µM)
assigned category: False
//
compound: CCN(c1cc(C#CCN2CCOCC2)cc(C(=O)NCc2c(C)cc(C)[nH]c2=O)c1C)[C@H]1CC[C@H](N(C)CCOC)CC1 (10 µM)
assigned category: True
//
compound: c1ccc(CN(CC2=NCCN2)c2ccccc2)cc1 [antazoline] (10 µM)
assigned category: False
//
compound: Clc1cccc(Cl)c1CSc1nnc(-c2cnccn2)s1 [yoda-1] (10 µM)
assigned category: True
//
compound: N#C/C(=C\c1cccn1S(=O)(=O)c1cccc([N+](=O)[O-])c1)S(=O)(=O)c1ccc(F)cc1 (10 µM)
assigned category: False
//
compound: COC(=O)[C@@H]1[C@H]2C[C@H]3c4[nH]c5ccccc5c4CCN3C[C@@H]2CC[C@@H]1O [yohimbine] (10 µM)
assigned category: False
//
compound: [Cl][Ru-]([Cl])([Cl])[Cl].[Na+].c1ccc2[nH]ncc2c1.c1ccc2[nH]ncc2c1 (10 µM)
assigned category: True

----------
tested on: Vero E6 infected with SARS-CoV-2; assay: inhibition of SARS-CoV-2 cytopathic effect; higher = more antiviral protection, active = above 15; settings: 8.33 nM; 48 h
metric name: inhibition of SARS-CoV-2 cytopathic effect (%)

molecule: COc1ccc(CNC(=O)c2cc(-c3cncc(C)c3)ncc2-c2nccs2)nc1OC
value: 4.06
//
molecule: COc1ccc(-c2cc3nccn3c(Nc3ncccc3C(N)=O)n2)cc1OC
value: -0.9
//
molecule: COc1ccc(-c2csc(NC(=O)[C@H]3CCCCN3S(=O)(=O)c3ccc(C)cc3)n2)cc1
value: 2.33
//
molecule: Cc1cc2nc3c(=O)[nH]c(=O)nc-3n(C)c2cc1C=O
value: -1.25
//
molecule: COc1ccc(Cl)cc1NC(=O)Nc1cc(C)nc2ccccc12
value: -2.11
//
molecule: CCNC(=O)N1CCN(CCCC(c2ccc(F)cc2)c2ccc(F)cc2)CC1 [amperozide]
value: -8.04
//
molecule: CCn1cc(C(=O)O)c(=O)c2cc3c(cc21)OCO3 [oxolinic-acid]
value: 0.26
//
molecule: C1CCN2C[C@@H]3C[C@@H](CN4CCCC[C@@H]34)[C@H]2C1 [sparteine-sulfate]
value: 4.17
//
molecule: Cn1nc(-c2ccc(C(F)(F)F)cc2)nc2c(=O)n(C)c(=O)nc1-2 [walrycin-B]
value: -0.74
//
molecule: CC(=O)c1c(C)c2cnc(Nc3ccc(N4CCNCC4)cn3)nc2n(C2CCCC2)c1=O [palbociclib]
value: 0.47
//
molecule: N=C(N)NC(=N)Nc1cccc(Cl)c1 [m-chlorophenylbiguanide]
value: 4.54
//
molecule: N=C(N)NC(=N)NCCc1ccccc1 [phenformin]
value: 0.38
//
molecule: CCc1cc(C(N)=S)ccn1 [ethionamide]
value: 0.54
//
molecule: Oc1ccc(O)cc1 [hydroquinone]
value: 2.88
//
molecule: CCN[C@H]1C[C@H](C)S(=O)(=O)c2sc(S(N)(=O)=O)cc21 [dorzolamide]
value: -3.23

----------
tested on: Vero E6 infected with SARS-CoV-2; assay: inhibition of SARS-CoV-2 cytopathic effect; higher = more antiviral protection, active = above 15; settings: 8.33 nM; 48 h
Where a name gives a salt, the structure may show the parent alone.
metric name: inhibition of SARS-CoV-2 cytopathic effect (%)

molecule: Clc1ccc(C(Cn2ccnc2)OCc2ccc(Sc3ccccc3)cc2)c(Cl)c1 (configuration not stated)
measured target: Vero E6 infected with SARS-CoV-2
value: 3.19

molecule: Cn1cnc(N)c2ncnc1-2
measured target: Vero E6 infected with SARS-CoV-2
value: -1.71

molecule: N=c1ccn2c(n1)O[C@H]1[C@H](O)[C@@H](CO)O[C@H]12 [Cyclocytidine HCl]
measured target: Vero E6 infected with SARS-CoV-2
value: 1

molecule: O=[N+]([O-])c1ccccc1S(=O)(=O)NCC1CCC(CNC[C@H]2CCc3ccccc3C2)CC1 (some centres not stated)
measured target: Vero E6 infected with SARS-CoV-2
value: 1.35

molecule: CCSc1ccc2c(c1)N(CCCN1CCN(C)CC1)c1ccccc1S2
measured target: Vero E6 infected with SARS-CoV-2
value: -1.48

molecule: CCCCCCCN(CC)CCC[C@@H](O)c1ccc(NS(C)(=O)=O)cc1 (racemic) [ibutilide]
measured target: Vero E6 infected with SARS-CoV-2
value: -2.14

molecule: CC[C@@H](C(N)=O)N1CCCC1=O
measured target: Vero E6 infected with SARS-CoV-2
value: 0.42

molecule: CCCCC/C=C\C/C=C\C/C=C\C/C=C\CCCC(=O)Nc1ccc(O)cc1
measured target: Vero E6 infected with SARS-CoV-2
value: -1.32

molecule: CS(=O)(=O)c1ccc(-c2cnc(NCc3ccco3)n3cnnc23)cc1
measured target: Vero E6 infected with SARS-CoV-2
value: 2.39

molecule: O=C1COc2nccc(-c3ccccc3F)c2CN1Cc1cc(C(F)(F)F)cc(C(F)(F)F)c1
measured target: Vero E6 infected with SARS-CoV-2
value: -1.69

molecule: COC[C@@H](c1ccc(C(F)(F)F)cc1)N1CCN(C2(C)CCN(C(=O)c3c(C)ncnc3C)CC2)C[C@@H]1C
measured target: Vero E6 infected with SARS-CoV-2
value: -0.11

molecule: CCn1c(=O)n(C2=C(CO)CN(CC3CCCCCCC3)CC2)c2ccccc21
measured target: Vero E6 infected with SARS-CoV-2
value: 1.16

molecule: Cn1c(Nc2ccc(C(F)(F)F)cc2)nc2cc(Oc3ccnc(-c4ncc(C(F)(F)F)[nH]4)c3)ccc21
measured target: Vero E6 infected with SARS-CoV-2
value: 1.69

molecule: CC(=O)NC[C@H]1CN(c2ccc(-c3ccc(CNCc4cnn[nH]4)cc3)c(F)c2)C(=O)O1
measured target: Vero E6 infected with SARS-CoV-2
value: 0.58

molecule: CNS(=O)(=O)Cc1ccc2[nH]cc(CCN(C)C)c2c1
measured target: Vero E6 infected with SARS-CoV-2
value: 0.24

molecule: CCOC(=O)c1ccc(OCCC2CCN(c3ccc(C)nn3)CC2)cc1
measured target: Vero E6 infected with SARS-CoV-2
value: 1.72

molecule: CNC(=O)c1ccc(C)c(-n2c(C)cc(OCc3ccc(F)cc3F)c(Br)c2=O)c1
measured target: Vero E6 infected with SARS-CoV-2
value: -2.37

molecule: CC/C(=C(/c1ccc(/C=C/C(=O)O)cc1)c1ccc2[nH]ncc2c1)c1ccc(F)cc1Cl
measured target: Vero E6 infected with SARS-CoV-2
value: -1.18

molecule: CCC(=N\O)/C(C)=C/c1ccc(F)cc1
measured target: Vero E6 infected with SARS-CoV-2
value: -0.21

molecule: CCn1cc(C(=O)O)c(=O)c2cnc(N3CCNCC3)nc21
measured target: Vero E6 infected with SARS-CoV-2
value: 2.63

molecule: CCN(CC)S(=O)(=O)c1ccc(C(=O)O)cc1
measured target: Vero E6 infected with SARS-CoV-2
value: 1.54

molecule: O=C(Nc1cc(C(F)(F)F)cc(C(F)(F)F)c1)c1cnc(Cl)nc1C(F)(F)F
measured target: Vero E6 infected with SARS-CoV-2
value: -0.29
